Assign DC50 to each entry below.
TEST TARGET: G2019S LRRK2 (Homo sapiens, UniProt Q5S007, G2019S)
Construct: expressed in transfected cells; host or cells: HEK293 (ATCC CRL-1573), transient transfection, mammalian expression vector with ubiquitin promoter
Sequence (Q5S007 whole entry G2019S): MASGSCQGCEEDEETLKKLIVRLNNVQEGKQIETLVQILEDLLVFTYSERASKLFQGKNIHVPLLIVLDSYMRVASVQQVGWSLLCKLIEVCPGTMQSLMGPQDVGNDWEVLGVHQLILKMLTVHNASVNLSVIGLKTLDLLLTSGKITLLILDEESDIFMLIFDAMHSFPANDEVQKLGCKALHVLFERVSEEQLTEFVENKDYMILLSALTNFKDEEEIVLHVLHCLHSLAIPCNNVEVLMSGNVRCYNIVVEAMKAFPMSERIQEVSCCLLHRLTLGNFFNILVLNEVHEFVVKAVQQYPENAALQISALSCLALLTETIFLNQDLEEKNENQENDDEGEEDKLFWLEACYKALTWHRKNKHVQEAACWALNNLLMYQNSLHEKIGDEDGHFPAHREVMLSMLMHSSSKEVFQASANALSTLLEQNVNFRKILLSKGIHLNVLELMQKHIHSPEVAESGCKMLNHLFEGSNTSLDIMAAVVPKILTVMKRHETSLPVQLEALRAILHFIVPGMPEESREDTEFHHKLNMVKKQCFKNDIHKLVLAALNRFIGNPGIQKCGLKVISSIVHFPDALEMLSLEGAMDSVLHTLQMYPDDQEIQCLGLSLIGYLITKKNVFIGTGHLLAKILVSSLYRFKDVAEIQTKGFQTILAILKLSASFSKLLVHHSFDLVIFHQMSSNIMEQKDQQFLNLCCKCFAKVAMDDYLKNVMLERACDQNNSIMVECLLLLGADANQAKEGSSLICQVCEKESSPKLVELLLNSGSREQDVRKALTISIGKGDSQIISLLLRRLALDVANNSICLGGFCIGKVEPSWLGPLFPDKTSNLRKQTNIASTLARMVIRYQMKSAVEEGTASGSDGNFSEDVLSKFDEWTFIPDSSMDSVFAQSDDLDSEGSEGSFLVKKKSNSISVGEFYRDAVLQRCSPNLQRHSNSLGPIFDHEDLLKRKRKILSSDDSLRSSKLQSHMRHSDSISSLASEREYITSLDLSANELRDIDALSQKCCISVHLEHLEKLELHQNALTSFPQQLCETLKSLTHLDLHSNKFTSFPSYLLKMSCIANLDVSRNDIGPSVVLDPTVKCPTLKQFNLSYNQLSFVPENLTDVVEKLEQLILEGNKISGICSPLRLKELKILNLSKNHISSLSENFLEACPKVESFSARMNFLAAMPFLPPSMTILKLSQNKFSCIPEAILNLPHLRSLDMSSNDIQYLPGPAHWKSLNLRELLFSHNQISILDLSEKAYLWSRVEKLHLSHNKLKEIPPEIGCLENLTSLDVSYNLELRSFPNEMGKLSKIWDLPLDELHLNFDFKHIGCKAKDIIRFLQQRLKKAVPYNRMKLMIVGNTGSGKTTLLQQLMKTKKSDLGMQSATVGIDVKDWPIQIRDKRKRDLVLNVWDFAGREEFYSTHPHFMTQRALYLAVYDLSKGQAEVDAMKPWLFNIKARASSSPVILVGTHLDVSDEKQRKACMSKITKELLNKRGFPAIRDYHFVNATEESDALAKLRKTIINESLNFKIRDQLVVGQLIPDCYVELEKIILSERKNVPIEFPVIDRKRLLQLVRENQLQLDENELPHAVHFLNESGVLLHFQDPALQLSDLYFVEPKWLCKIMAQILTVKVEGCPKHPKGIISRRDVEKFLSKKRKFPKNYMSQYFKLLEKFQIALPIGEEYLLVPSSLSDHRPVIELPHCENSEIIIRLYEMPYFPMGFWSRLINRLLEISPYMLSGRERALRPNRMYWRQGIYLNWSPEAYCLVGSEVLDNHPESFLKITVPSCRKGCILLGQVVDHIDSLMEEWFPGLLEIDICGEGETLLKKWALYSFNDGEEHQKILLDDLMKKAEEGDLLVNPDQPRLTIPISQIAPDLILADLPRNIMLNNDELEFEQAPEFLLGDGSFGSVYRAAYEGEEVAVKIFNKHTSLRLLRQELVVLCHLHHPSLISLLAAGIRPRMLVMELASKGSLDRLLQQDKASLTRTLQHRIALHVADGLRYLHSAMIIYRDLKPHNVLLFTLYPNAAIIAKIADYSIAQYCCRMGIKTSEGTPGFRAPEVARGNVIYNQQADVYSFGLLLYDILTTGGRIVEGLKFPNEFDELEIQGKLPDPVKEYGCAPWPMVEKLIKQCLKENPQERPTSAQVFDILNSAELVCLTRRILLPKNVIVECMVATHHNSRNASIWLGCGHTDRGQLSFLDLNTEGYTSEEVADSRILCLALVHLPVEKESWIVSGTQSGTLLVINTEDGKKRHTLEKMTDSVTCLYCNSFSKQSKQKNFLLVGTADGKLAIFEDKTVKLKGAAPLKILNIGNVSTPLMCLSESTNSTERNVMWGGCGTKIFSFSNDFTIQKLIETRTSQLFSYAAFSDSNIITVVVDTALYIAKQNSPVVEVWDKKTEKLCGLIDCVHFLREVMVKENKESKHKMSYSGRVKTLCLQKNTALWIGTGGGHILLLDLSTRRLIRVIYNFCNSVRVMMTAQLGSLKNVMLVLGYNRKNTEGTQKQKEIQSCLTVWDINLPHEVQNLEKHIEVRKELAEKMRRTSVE
METHOD SUMMARY: LRRK2 degradation assay, HiBit-tagged G2019S LRRK2 expressed from plasmid in HEK293 cells (Nano-Glo Dual-Luciferase)
Assay type: cell-based
PROTOCOL CONDITIONS: HiBit-tagged G2019S LRRK2 in HEK293 cells, 24 hours

[ask] State the recorded DC50 for this entry: CC1(Oc2ccc3[nH]nc(-c4cc(N5CCC(C(=O)N6CCC(CC7CCN(c8ccc9c(c8)C(=O)N(C8CCC(=O)NC8=O)C9=O)CC7)CC6)CC5)ncn4)c3c2)CC1 (stereo not shown)
[reply] 10 to 50 nM

[ask] State the recorded DC50 for this entry: CC1(Oc2ccc3[nH]nc(-c4cc(N5CCC(CN6CCN(CC7CCN(c8cc9c(cc8F)C(=O)N(C8CCC(=O)NC8=O)C9=O)CC7)CC6)CC5)ncn4)c3c2)CC1 (stereo not shown)
[reply] 10 to 50 nM

[ask] State the recorded DC50 for this entry: CC1(Oc2ccc3[nH]nc(-c4ccnc(N5CCN(CC6(F)CCN(C(=O)C7CCN(c8ccc9c(c8)C(=O)N(C8CCC(=O)NC8=O)C9=O)CC7)CC6)CC5)c4)c3c2)CC1 (stereo not shown)
[reply] < 10 nM

[ask] State the recorded DC50 for this entry: C[C@H]1CN(c2cc(-c3n[nH]c4ccc(OC5(C)CC5)cc34)ncn2)CCN1C[C@@H]1CCN(CC2CCN(c3ccc4c(c3)C(=O)N(C3CCC(=O)NC3=O)C4=O)CC2)C1 (stereo partly shown)
[reply] < 10 nM

[ask] State the recorded DC50 for this entry: C[C@H]1CN(c2cc(-c3n[nH]c4ccc(OC5CC5)cc34)ncn2)CCN1CC1CCN(CC2CCN(c3ccc4c(c3)C(=O)N(C3CCC(=O)NC3=O)C4=O)CC2)CC1 (stereo partly shown)
[reply] 10 to 50 nM

[ask] State the recorded DC50 for this entry: C[C@H]1CN(c2cc(-c3[nH]nc4ccc(OC5(C)CC5)cc34)ncn2)CCN1CC1CCN(CC2CCN(c3cccc4c3CN(C3CCC(=O)NC3=O)C4=O)CC2)CC1 (stereo partly shown)
[reply] < 10 nM

[ask] State the recorded DC50 for this entry: CC1(Oc2ccc3n[nH]c(-c4cc(N5CCN(CC6(F)CCN(CC7CN(c8ccc9c(c8)C(=O)N(C8CCC(=O)NC8=O)C9=O)C7)CC6)CC5)ncn4)c3c2)CC1 (stereo not shown)
[reply] < 10 nM

[ask] State the recorded DC50 for this entry: CC1(Oc2ccc3n[nH]c(-c4cc(N5CCC(CN6CCC(CN7CCN(c8ccc9c(c8)C(=O)N(C8CCC(=O)NC8=O)C9=O)CC7)CC6)CC5)ncn4)c3c2)CC1 (stereo not shown)
[reply] < 10 nM

[ask] State the recorded DC50 for this entry: C[C@H]1CN(c2cc(-c3n[nH]c4ccc(OC5(C)CC5)cc34)ncn2)CCN1CC1CCN(CCCOc2cccc3c2C(=O)N(C2CCC(=O)NC2=O)C3=O)CC1 (stereo partly shown)
[reply] 10 to 50 nM

[ask] State the recorded DC50 for this entry: CC1(Oc2ccc3n[nH]c(-c4cc(N5CCN(CC6(F)CCN(C(=O)C7CCN(c8ccc9c(c8)C(=O)N(C8CCC(=O)NC8=O)C9=O)CC7)CC6)CC5)ncn4)c3c2)CC1 (stereo not shown)
[reply] < 10 nM

[ask] State the recorded DC50 for this entry: CC1(Oc2ccc3[nH]nc(-c4cc(N5CCC(O[C@H]6C[C@H](OC7CCN(c8ccc9c(c8)C(=O)N(C8CCC(=O)NC8=O)C9=O)CC7)C6)CC5)ncn4)c3c2)CC1 (stereo partly shown)
[reply] 10 to 50 nM

[ask] State the recorded DC50 for this entry: CC1(Oc2ccc3[nH]nc(-c4cc(N5CCC(C(=O)N6CCC(CN7CCN(c8ccc9c(c8)C(=O)N(C8CCC(=O)NC8=O)C9=O)CC7)CC6)CC5)ncn4)c3c2)CC1 (stereo not shown)
[reply] < 10 nM

[ask] State the recorded DC50 for this entry: CC1(Oc2ccc3[nH]nc(-c4ccnc(N5CCOC6(CN(CC7CCN(CC8CCN(c9cccc%10c9C(=O)N(C9CCC(=O)NC9=O)C%10=O)CC8)CC7)C6)C5)c4)c3c2)CC1 (stereo not shown)
[reply] 10 to 50 nM

---

TEST TARGET: LRRK2 (endogenous, HiBit tagged) (Homo sapiens, UniProt Q5S007)
Construct: endogenous in cells; host or cells: HEK293 cells with HiBit knock-in at the endogenous LRRK2 locus, stably expressing firefly luciferase
Sequence (Q5S007 whole entry): as the sequence (Q5S007 whole entry G2019S) above, with S2019G counted along it
METHOD SUMMARY: Endogenous LRRK2 degradation assay, endogenous gene C-terminally HiBit-tagged in HEK293 cells (Nano-Glo Dual Luciferase)
Assay type: cell-based
PROTOCOL CONDITIONS: endogenous HiBit-tagged LRRK2 in HEK293 cells, 24 hours treatment; read-out: Endogenous WT DC50
Assign DC50 to each entry below.

[ask] State the recorded DC50 for this entry: CC1(Oc2ccc3[nH]nc(-c4cc(N5CCC(O[C@H]6CC[C@H](CN7CCN(c8ccc9c(c8F)CN(C8CCC(=O)NC8=O)C9=O)C(C)(C)C7)CC6)CC5)ncn4)c3c2)CC1 (stereo partly drawn) [Compound 378]
[reply] < 10 nM

[ask] State the recorded DC50 for this entry: CC1(Oc2ccc3[nH]nc(-c4cc(N5CCC(CN6CCC(F)(CC7CCN(c8c(F)cc9c(c8F)CN(C8CCC(=O)NC8=O)C9=O)CC7)CC6)CC5)ncn4)c3c2)CC1 (stereo not drawn) [Compound 242]
[reply] < 10 nM

[ask] State the recorded DC50 for this entry: CC1(Oc2ccc3[nH]nc(-c4cc(N5CCN(C[C@H]6CC[C@H](OC7CCN(c8ccc9c(c8Cl)CN(C8CCC(=O)NC8=O)C9=O)CC7)CC6)CC5)ncn4)c3c2)CC1 (stereo partly drawn) [Compound 243]
[reply] < 10 nM

---

Assign Dmax to each entry below.
TEST TARGET: LRRK2 (endogenous, HiBit tagged) (Homo sapiens)
Construct: endogenous in cells; host or cells: HEK293 cells with HiBit knock-in at the endogenous LRRK2 locus, stably expressing firefly luciferase
METHOD SUMMARY: Endogenous LRRK2 degradation assay, endogenous gene C-terminally HiBit-tagged in HEK293 cells (Nano-Glo Dual Luciferase)
Type: cell-based
PROTOCOL CONDITIONS: endogenous HiBit-tagged LRRK2 in HEK293 cells, 24 hours; read-out: **Endogenous WT Dmax (%)

[ask] State the recorded Dmax for this entry: C[C@H]1CN(c2cc(-c3[nH]nc4ccc(OC5(C)CC5)cc34)ncn2)CCN1CC(=O)N1CCC(CN2CCN(c3ccc4c(c3)C(=O)N(C3CCC(=O)NC3=O)C4=O)CC2)CC1 (stereo partly shown)
[reply] ≥ 70%

[ask] State the recorded Dmax for this entry: CC1(Oc2ccc3n[nH]c(-c4cc(N5CCC(CO[C@H]6CC[C@H](CN7CCN(c8ccc9c(c8)C(=O)N(C8CCC(=O)NC8=O)C9=O)CC7)CC6)CC5)ncn4)c3c2)CC1 (stereo partly shown)
[reply] ≥ 70%

[ask] State the recorded Dmax for this entry: CC1(Oc2ccc3n[nH]c(-c4cc(N5CCC(COC6CCN(C(=O)C7CCN(c8ccc9c(c8)C(=O)N(C8CCC(=O)NC8=O)C9=O)CC7)CC6)CC5)ncn4)c3c2)CC1 (stereo not shown)
[reply] ≥ 70%

[ask] State the recorded Dmax for this entry: CC1(Oc2ccc3n[nH]c(-c4cc(N5CCC(COC6CCN(CC7CCN(c8ccc9c(c8)C(=O)N(C8CCC(=O)NC8=O)C9=O)CC7)CC6)CC5)ncn4)c3c2)CC1 (stereo not shown)
[reply] ≥ 70%

[ask] State the recorded Dmax for this entry: C[C@H]1CN(c2cc(-c3n[nH]c4ccc(OC5(C)CC5)cc34)ncn2)CCN1CCC1(F)CCN(CC2CCN(c3ccc4c(c3)C(=O)N(C3CCC(=O)NC3=O)C4=O)CC2)CC1 (stereo partly shown)
[reply] ≥ 70%

[ask] State the recorded Dmax for this entry: CC1(Oc2ccc3n[nH]c(-c4cc(N5CCN(CCN6CCN(CC7CCN(c8ccc9c(c8)CN(C8CCC(=O)NC8=O)C9=O)CC7)CC6)CC5)ncn4)c3c2)CC1 (stereo not shown)
[reply] ≥ 70%

[ask] State the recorded Dmax for this entry: CC1(Oc2ccc3[nH]nc(-c4ccnc(N5CC(F)(CN6CCN(CC7CCN(c8ccc9c(c8)C(=O)N(C8CCC(=O)NC8=O)C9=O)CC7)CC6)C5)c4)c3c2)CC1 (stereo not shown)
[reply] ≥ 70%

[ask] State the recorded Dmax for this entry: C[C@H]1CN(c2cc(-c3[nH]nc4ccc(OC5(C)CC5)cc34)ncn2)CCN1CCN1CCC(C(=O)N2CCN(c3ccc4c(c3)C(=O)N(C3CCC(=O)NC3=O)C4=O)CC2)CC1 (stereo partly shown)
[reply] 50 to 70%

[ask] State the recorded Dmax for this entry: CC1(Oc2ccc3n[nH]c(-c4cc(N5CCC(CN6CCN(CC7CCN(c8ccc9c(c8)C(=O)N(C8CCC(=O)NC8=O)C9=O)CC7)CC6)CC5)ncn4)c3c2)CC1 (stereo not shown)
[reply] ≥ 70%

[ask] State the recorded Dmax for this entry: CC1(Oc2ccc3[nH]nc(-c4cc(N5CCN(C[C@H]6CC(=O)N(CC7CCN(c8ccc9c(c8)C(=O)N(C8CCC(=O)NC8=O)C9=O)CC7)C6)CC5)ncn4)c3c2)CC1 (single isomer, unassigned)
[reply] 50 to 70%
